From: ChEMBL document CHEMBL5625179

Biological target: CAR3 (NR1I3) (Homo sapiens, UniProt Q14994)
Assay: Antagonist activity at human CAR3 expressed in human HepG2 cells at 30 uM incubated for 24 hrs by dual luciferase gene reporter assay relative to CITCO
Type: cell-based
Design: scale not given: the % may be the effect or the level left
Conditions: HepG2 cells expressing human CAR3, read-out: Activity
experimental-endpoint: activity at 24 h, 30 µM (%)
Numbers only, in %.

Identify activity at 24 h, 30 µM associated with the molecule Sc1nc(-c2ccc(Br)cc2)nc2ccccc12 44

###

Biological target: Nuclear receptor subfamily 1 group I member 3 (Homo sapiens, UniProt Q14994)
Sequence (Q14994 whole entry, the tested form may be a part): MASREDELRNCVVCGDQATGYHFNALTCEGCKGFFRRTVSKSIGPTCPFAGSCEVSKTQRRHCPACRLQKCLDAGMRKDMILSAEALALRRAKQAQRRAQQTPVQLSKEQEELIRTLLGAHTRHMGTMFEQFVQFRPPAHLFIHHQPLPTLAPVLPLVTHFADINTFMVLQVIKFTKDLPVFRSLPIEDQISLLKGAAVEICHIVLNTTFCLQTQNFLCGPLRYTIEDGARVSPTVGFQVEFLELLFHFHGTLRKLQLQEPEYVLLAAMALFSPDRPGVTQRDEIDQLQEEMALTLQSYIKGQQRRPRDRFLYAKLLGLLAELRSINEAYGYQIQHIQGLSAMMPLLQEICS
Test: Antagonist activity at human CAR LBD (151 to 349 residues) expressed in HepG2 cells co-expressed with pGL5-luc luciferase assessed as reduction in CAR activation measured after 1 to 4 hrs in presence of CITCO by LanthaScreen TR-FRET assay
Assay type: cell-based
experimental-endpoint: IC50 (µM)
One number for each entry, in µM.

Identify IC50 associated with the compound Sc1nc(-c2ccc(Br)cc2)nc2ccccc12 95.7
